meta.source: paper PMC9352680

Target: T1, PUF4 RNA-binding domain (Saccharomyces cerevisiae, UniProt P25339 537-888)
T1 sequence: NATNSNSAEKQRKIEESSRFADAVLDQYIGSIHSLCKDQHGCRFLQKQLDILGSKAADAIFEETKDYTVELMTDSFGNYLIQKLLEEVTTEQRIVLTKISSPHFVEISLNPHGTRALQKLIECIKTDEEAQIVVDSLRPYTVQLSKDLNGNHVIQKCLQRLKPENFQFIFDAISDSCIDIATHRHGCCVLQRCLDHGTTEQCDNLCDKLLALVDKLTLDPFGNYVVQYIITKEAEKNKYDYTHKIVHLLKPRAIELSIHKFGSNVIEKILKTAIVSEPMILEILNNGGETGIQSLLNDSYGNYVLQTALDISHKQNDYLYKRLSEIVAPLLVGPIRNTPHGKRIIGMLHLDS
Assay: Mg; RNA-MaP; 20 mM Na-HEPES pH 7.4, 30 mM KOAc, 0.75 mM MgCl2, 0.1% Tween-20, 5% glycerol, 0.1 mg/mL BSA, 2 mM DTT; 25 C; 0.0125-409.6 nM protein
Settings: tags: N-His6-TEV cleaved; C-SNAP kept, Cy3B-labelled; label: tethered on chip by stalled RNA polymerase
Measured Kd of individual entries

binder: UCUCUUUGUAAAUCCCUCUCUU (ssRNA) [Ic_S1_P5E.1_K5.1_C5.1_H5.1_A5.1_[T5A]_[T6A]_[A7T]_F5.1_[T8C]_[T9C]_[A10C]_T5.1]
u: nM
lt.gt.eq: =
Kd: 240
--
binder: Ic_S4_P4E.1_K4.1_C4.1_H4.1_A4.1_F4.1_[A9C]_T4.1 (ssRNA) RNA: UUUGACAACUGAUCGUUCUUUCUUGUAUAUUCUUCUUUCUCGAUCAGUUGUCUUU
u: nM
lt.gt.eq: =
Kd: 4.49
--
binder: UCUCUUUGUAUACGUUUCUCUU (ssRNA) [Ic_S1_P5E.1_K5.1_C5.1_H5.1_A5.1_[T6A]_[A7C]_F5.1_[T8G]_[A10T]_T5.1]
u: nM
lt.gt.eq: =
Kd: 43.4
--
binder: UCUCUUCUUGUAUUAUUAACUCUCUU (ssRNA) [Id_ii_S1_P5E.2_K5.1_C5.2_H5.1_A5.1_F5.1_T5.2_[T11A]_[A12C]]
u: nM
lt.gt.eq: =
Kd: 5.25
--
binder: Ib_S4_P3E.1_K3.1_C3.1_H3.1_[T1A]_A3.1_F3.1_[T7C]_T3.1 (ssRNA) RNA: UUUGACAACUGAUCGUUCUUUCUAGUAUACAUUCUUUCUCGAUCAGUUGUCUUU
u: nM
lt.gt.eq: >
Kd: 2300
--
binder: Ic_S2_P4E.1_K4.1_C4.1_H4.1_A4.1_[T5G]_[A6T]_[T7C]_F4.1_[A9C]_T4.1 (ssRNA) RNA: UUUGAUUAAUAUGAUAUCGUUCUUUCUUGUAGUCUCUUCUUUCUCGAUAUCAUAUUAAUCUUU
u: nM
lt.gt.eq: =
Kd: 149
--
binder: UCUCUUUUUAGUAUUAUCUCUU (ssRNA) [Ib_S1_P5E.1_K5.1_C5.1_H5.1_[G2T]_A5.1_[T5G]_F5.1_T5.1]
u: nM
lt.gt.eq: >
Kd: 2300
--
binder: Ic_S2_P5E.1_K5.1_C5.1_H5.1_A5.1_[T5G]_[A7C]_F5.1_[T9A]_T5.1 (ssRNA) RNA: UUUGAUUAAUAUGAUAUCGUUCUUUCUUGUAGUCUAAUUCUUUCUCGAUAUCAUAUUAAUCUUU
u: nM
lt.gt.eq: =
Kd: 6.4
--
binder: UCUCUUUUUGUAUAUUAGCUCUCUU (ssRNA) [Id_ii_S1_P4E.2_K4.1_C4.2_[C-2T]_H4.1_A4.1_F4.1_T4.2_[T11C]]
u: nM
lt.gt.eq: =
Kd: 0.413
--
binder: UCUCUUAGUAUACAUCUCUU (ssRNA) [Ib_S1_P3E.1_K3.1_C3.1_H3.1_[T1A]_A3.1_F3.1_[T7C]_T3.1]
u: nM
lt.gt.eq: >
Kd: 2300
--
binder: UCUCUUUGUAUUUCCUCUCUU (ssRNA) [Ic_S1_P4E.1_K4.1_C4.1_H4.1_A4.1_[A6T]_F4.1_[T8C]_[A9C]_T4.1]
u: nM
lt.gt.eq: =
Kd: 313
--
binder: ACAAACGAUAUAUAUUAUAACAAAC (ssRNA) [Id_ii_S3_P4E.3_K4.2_C4.2_[C-2G]_[T-1A]_H4.2_A4.1_F4.1_T4.2_[G10T]_[T11A]]
u: nM
lt.gt.eq: =
Kd: 41.7
--
binder: UCUCUUUCUUAUAUAUUAUUUCUCUU (ssRNA) [Id_iii_S1_P4E.6_K4.2_C4.3_H4.2_A4.1_F4.1_T4.2_[G10T]]
u: nM
lt.gt.eq: =
Kd: 15.1
